Test system: MCF-7 cell line
test.description: inhibition of growth of the human breast cancer cell line MCF-7 in cell culture
Assay type: cell-based
study.conditions: MCF7, MCF-7 cell culture, read-out: IC50 against the MCF-7 cell line
measured.property: IC50 (nM)
Field format: number, assumed nM, no unit text.

Query string: Return the recorded IC50 value; entry: C#CCN(Cc1ccc2nc(C)[nH]c(=O)c2c1)c1ccc(C(=O)N[C@@H](CCC(=O)N(C)[C@@H](CCC(=O)O)C(=O)O)C(=O)O)cc1
Result string: 300
